src = PubChem BioAssay (NCI)

test system: SK-MEL-5 melanoma; experiment: NCI-60 one-dose screen, 48 h (100 = growth as untreated, 0 = no growth, -100 = all killed); conditions: 10 µM unless noted
About 83,000 compounds went through this panel and 20% of them were active in at least one assay; those are over-represented in the sample as a whole.
Please note: 1 applies when growth is 30% or greater, and 0 applies otherwise.

Incoming: Reported growth at or above 30%? Cc1nn(-c2ccccc2)c(-n2ccnc2)c1/C=N/Nc1nc(-c2ccc(Cl)c(Cl)c2)cs1
Outgoing: 0

Incoming: Now this one: N#Cc1c(-c2ccc(Cl)cc2)nc(NCCO)[nH]c1=O
Outgoing: 1

Incoming: And COc1ccc(-c2cc(-c3ccc(Cl)cc3)c(C#N)c(=O)n2CCCCCC(=O)Nc2ccccc2N)cc1 ?
Outgoing: 0

Incoming: Cn1cc(-c2cc3ncnc(Nc4ccc(CC(=O)Nc5cc(C(C)(C)C)on5)cc4)c3s2)cn1 ?
Outgoing: 1

Incoming: Query O=c1c2cc(C(F)(F)F)ccc2sc2c(NCCCNCCO)nc3ccccc3c12 next
Outgoing: 1

Incoming: Also need CC(=O)Oc1ccccc1C(=O)N=C1[Se]CCCN1C(=O)c1ccccc1OC(C)=O , thanks.
Outgoing: 1

Incoming: Now consider O=C(O)c1cn(C2CC2)c2cc(N3CCN(C(=O)Nc4nc(-c5ccccc5)cs4)CC3)c(F)cc2c1=O .
Outgoing: 0

Incoming: Queued: CCOC(=O)/C=C1\S/C(=N\Nc2ccc([N+](=O)[O-])cc2[N+](=O)[O-])N(Cc2ccccc2)C1=O
Outgoing: 1

Incoming: Same again, this time with COc1ccc(S(=O)(=O)n2cc(C3OC(c4cc(OC)c(OC)c(OC)c4)=NN3C(C)=O)c3ccccc32)cc1OC (centres undefined)
Outgoing: 1

Incoming: And what about the compound CN(C)CCN1CCN(c2ncccc2C2Nc3ccccc3-n3cccc32)CC1 (centres undefined) ?
Outgoing: 1

Incoming: Quick one: Oc1c(I)cc(I)cc1CNCCCN(Cc1ccccn1)Cc1ccccn1
Outgoing: 0

Incoming: Same question, O=C(/C=C/c1cccc2ccccc12)c1ccc(NC(=O)c2ccccc2CN2C(=O)c3ccccc3C2=O)cc1 this time
Outgoing: 1

Incoming: Here is the next compound: CCc1cccc2c3c(sc12)C(c1ccc(Cl)cc1)C(C#N)=C(N)O3 (centres undefined)
Outgoing: 0

Incoming: What would you report for CN1CCN(CC(=O)N2c3cccc4cccc(c34)N(C(=O)CN3CCN(C)CC3)C2c2cn(-c3ccccc3)nc2-c2cccc([N+](=O)[O-])c2)CC1 ?
Outgoing: 0

Incoming: Okay, and COc1ccc2c(c1)C(C)Cc1c(ncnc1-n1c(C)nc3ccccc31)N2C (centres undefined) ?
Outgoing: 0

Incoming: And CCOC(=O)c1c(C)oc2ncnc(N3CCN(C(=O)COc4ccc(C(C)(C)C)cc4)CC3)c12 ?
Outgoing: 1

Incoming: Here is the next compound: COc1ccc(/C=C2\Oc3cc(OCCN4CCC(Cc5ccccc5)CC4)ccc3C2=O)cc1OC
Outgoing: 1

Incoming: Request: Nc1nc(-c2cccc3ccccc23)cc2ccccc12
Outgoing: 0

Incoming: What do we get for COc1c(B(O)O)cc(C)cc1-c1nc2ccc3[nH]ncc3c2c2c1CCCC2 ?
Outgoing: 1

* * *

system: MCF7 breast; assay: NCI-60 one-dose screen, 48 h (100 = growth as untreated, 0 = no growth, -100 = all killed); details: 10 µM unless noted
Compounds without any hit were thinned out: in the full panel of roughly 83,000, 20% have a hit.
What growth was measured for each of the following?
State the answer as a number, implicitly in %.

Incoming: Fill in: growth of O=C(/C=C/c1sc(Cl)nc1Cl)c1ccc(Br)cc1 is ___
Outgoing: 27.9

Incoming: Subsequent entry: COc1ccc(-c2cc(-c3cc(OC)c(OC)c(OC)c3)nc(N3CCOCC3)c2C#N)cc1
Outgoing: 74.4

Incoming: Likewise for COc1ccc(C2NC(=O)C(C#N)c3c2sc2c(F)cccc32)c(OC)c1 (stereo not given) ?
Outgoing: 24.5

Incoming: Then what about the compound COc1ccc(OC)c(/C=C2\Oc3cc(OCCN4CCC(Cc5ccccc5)CC4)ccc3C2=O)c1 ?
Outgoing: 77.3

Incoming: Here is the next compound: CC(=O)OC[C@H]1OC(Sc2sc(C(=O)c3ccc(C)cc3)c(N)c2-c2nc3ccccc3s2)[C@H](OC(C)=O)[C@@H](OC(C)=O)[C@@H]1OC(C)=O (stereo not given in full)
Outgoing: 73.6

Incoming: Next: Cc1ccc(-c2nn(C)c(=O)c3noc(-c4ccc(C)cc4)c23)cc1
Outgoing: 30

Incoming: Record: Cc1ccc(/C=C2\Oc3ccc(O)c(O)c3C2=O)cc1
Outgoing: 31.6

Incoming: Queued: CCOC(=O)c1c(C)nc2c(c1N)CC(=O)N2Cc1ccc(F)cc1
Outgoing: 96.1

Incoming: Now consider CCOC(=O)CCN(C(=O)Nc1ccccc1)C1CCCCC1 .
Outgoing: 98.4

Incoming: Also CCOC(=O)c1cn2ncnc(Oc3ccc(NC(=O)NCCN4CCOCC4)c(Cl)c3)c2c1C , if possible.
Outgoing: 88.5

Incoming: What do you get for O=C1CCC/C=C\C[C@H]2C=CC(=O)/C2=C/C[C@H](CCc2cccc(C(F)(F)F)c2)O1 ?
Outgoing: -6.2

Incoming: Same question, O=C(O)C(c1ccccc1)N1C(=O)CSC1=S (stereo not given) this time
Outgoing: 93.8

Incoming: Record: Cc1ccccc1C(=O)NN
Outgoing: 102

Incoming: Here is the next compound: CC1=C(SCCC(=O)OC(C[Se]C2=C(C)C(=O)c3ccccc3C2=O)C(=O)NC(C)(C)C)C(=O)c2ccccc2C1=O (stereo not given)
Outgoing: -63.5

Incoming: Another compound to check: CN(C)CC#Cc1ccc2ncc(C#N)c(Nc3ccc(F)c(Cl)c3)c2c1
Outgoing: 79.4

Incoming: Try this compound next: O=C(Nc1ccc(-c2nc(-c3cccc(OCCN4CCOCC4)c3)c(-c3ccnc(Br)c3)[nH]2)cc1)c1ccccc1
Outgoing: -46

Incoming: # repeat for CNc1ccc(Nc2cccc(C)c2)c2c1C(=O)c1ccccc1C2=O
Outgoing: 10.2

Incoming: Item: COC(=O)Nc1ccc(-c2nc(-c3cccc(OC)c3)c(-c3ccnc(Br)c3)[nH]2)cc1
Outgoing: 33.1

Incoming: Ok, now O=C(/C=C/c1ccc([N+](=O)[O-])o1)NNC(=O)c1cc2ccccc2cc1O
Outgoing: 32.9

Incoming: Likewise for COc1cc(/C=C/C(=O)/C=C/c2cc(OC)c3c(c2OC)OCO3)c(OC)c2c1OCO2 ?
Outgoing: 19.1
